assay_system: BTK protein (Homo sapiens, UniProt Q06187)
Construct: endogenous in cells; host or cells: TMD-8 cells
Sequence (Q06187 whole entry): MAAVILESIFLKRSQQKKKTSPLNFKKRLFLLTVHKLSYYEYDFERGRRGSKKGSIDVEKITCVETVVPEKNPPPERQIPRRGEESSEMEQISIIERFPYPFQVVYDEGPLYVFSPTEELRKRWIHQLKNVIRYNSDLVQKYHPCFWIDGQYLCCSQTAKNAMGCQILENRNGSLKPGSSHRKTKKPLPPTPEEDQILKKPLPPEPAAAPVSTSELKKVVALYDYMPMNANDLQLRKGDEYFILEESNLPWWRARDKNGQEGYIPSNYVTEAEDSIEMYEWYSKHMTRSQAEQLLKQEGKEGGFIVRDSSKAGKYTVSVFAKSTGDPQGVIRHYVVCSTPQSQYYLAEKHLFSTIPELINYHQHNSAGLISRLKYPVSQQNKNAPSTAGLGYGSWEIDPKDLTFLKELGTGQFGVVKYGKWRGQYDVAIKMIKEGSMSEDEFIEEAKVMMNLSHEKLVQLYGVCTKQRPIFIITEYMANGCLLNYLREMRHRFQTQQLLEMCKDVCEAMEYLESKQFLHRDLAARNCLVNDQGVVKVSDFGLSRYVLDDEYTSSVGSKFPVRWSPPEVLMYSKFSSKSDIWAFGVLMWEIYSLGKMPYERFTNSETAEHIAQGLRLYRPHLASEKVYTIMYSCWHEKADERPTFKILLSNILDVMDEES
assay_name: Measurement of BTK protein degradation ability in TMD-8 cells (Western blotting)
Format: cell-based
test_parameters: compound 10 nM, harvested after 24 hours
observable: BTK degradation (%) 10 nM

(1) Cc1cc(-c2ccnc(Nc3ccc(N4CCN(C5CCN(c6ccc7c(c6)C(=O)N(C6CCC(=O)NC6=O)C7=O)CC5)CC4)cc3)n2)ccc1CNC(=O)N1CC(OC(C)C)C1 (stereo not shown)
(2) Cc1cc(CNC(=O)N2CC(OC(C)C)C2)cc(-c2ccnc(Nc3ccc(N4CCN(CC5CCN(c6ccc7c(c6)C(=O)N(C6CCC(=O)NC6=O)C7=O)CC5)CC4)cc3)n2)c1 (stereo not shown)
Query: Hi there, can you help? I need to know whether 1 or 2 has lower measured BTK degradation (%) 10 nM. Bench note: the answer is the label of the chosen record.
Response: 2

###

assay_system: BTK protein (Homo sapiens, UniProt Q06187)
Construct: endogenous in cells; host or cells: TMD-8 cells
assay_name: Measurement of BTK protein degradation ability in TMD-8 cells (Western blotting)
Assay type: cell-based
test_parameters: compound 10 nM, harvested after 24 hours
observable: BTK degradation (%) 10 nM

compound	assay_system	observable	reported_result
Cc1cc(-c2ccnc(Nc3ccc(N4CCN(CC5CCN(c6ccc7c(c6)C(=O)N(C6CCC(=O)NC6=O)C7=O)CC5)CC4)nc3)n2)ccc1CNC(=O)N1CC(OC(C)C)C1 (stereo not drawn) [Example 17]	BTK protein (Homo sapiens, UniProt Q06187)	BTK degradation (%) 10 nM	91
Cc1cc(-c2ccnc(Nc3ccc(N4CCC(CN5CCC(c6ccc(NC7CCC(=O)NC7=O)cc6)CC5)CC4)cc3)n2)ccc1CNC(=O)N1CC(OC(C)C)C1 (stereo not drawn) [Example 123]	BTK protein (Homo sapiens, UniProt Q06187)	BTK degradation (%) 10 nM	92.5
Cc1cc(-c2ccnc(Nc3ccc(N4CCN(CC5CN(c6ccc7c(c6)C(=O)N(C6CCC(=O)NC6=O)C7=O)C5)CC4)cc3)n2)ccc1CNC(=O)c1cnn(C(C)C)c1 (stereo not drawn) [Example 34]	BTK protein (Homo sapiens, UniProt Q06187)	BTK degradation (%) 10 nM	90

###

assay_system: BTK protein (Homo sapiens)
Construct: endogenous in cells; host or cells: TMD-8 cells
assay_name: Measurement of BTK protein degradation ability in TMD-8 cells (Western blotting)
Assay type: cell-based
test_parameters: compound 10 nM, harvested after 24 hours
Experimental: TMD-8, RAMOS, or 293T BTK MUT (C481S) cells were treated with the synthesized compounds, and then the amount of BTK protein present in the cells was measured using Western blotting detection. The protocol for the experiment conducted using TMD-8 cells was as follows: [Culture] […] [Western blotting detection method] […] The samples were washed 5 times with 0.5% TBST for 5 minutes each and detected with LI-COR's Odyssey. […]
observable: BTK degradation (%) 10 nM

Examples with answers:
compound	BTK degradation (%) 10 nM
COc1ccc(C(=O)N2CCC(CN3CCN(c4ccc(Nc5nccc(-c6ccc(CNC(=O)N7CC(OC(C)C)C7)c(C)c6)n5)cc4)CC3)CC2)cc1N1CCC(=O)NC1=O [Example 86]	90
Cc1cc(-c2ccnc(Nc3ccc(N4CCN(CC5CCN(c6ccc(NC7CCC(=O)NC7=O)cn6)CC5)CC4)cc3)n2)ccc1CNC(=O)c1cnn(C(C)C)c1 (stereo not shown) [Example 58]	97.5
Cc1cc(-c2ccnc(Nc3ccc(N4CCN(CC5CCN(c6ccc(OC7CCC(=O)NC7=O)cc6)CC5)CC4)cc3)n2)ccc1CNC(=O)c1cnn(C(C)C)c1 (stereo not shown) [Example 48]	94.5

(A) Cc1cc(-c2ccnc(Nc3ccc(N4CCN(CC5CCN(c6ccc(N7CCC(=O)NC7=O)cc6)CC5)CC4)cc3)n2)ccc1CNC(=O)c1cn(C(C)(C)C)nn1 [Example 71]
(B) Cc1cc(-c2ccnc(Nc3ccc(N4CCC(C(=O)N5CCC(c6cccc(NC7CCC(=O)NC7=O)c6)CC5)CC4)cc3)n2)ccc1CNC(=O)N1CC(OC(C)C)C1 (stereo not shown) [Example 116]
Query: Please indicate which has the smaller reported BTK degradation (%) 10 nM: A , or B . Lab note: record the label of whichever item you select.
Response: B
(B: 56.0%, A: 98.0%)

Data origin, for the record: patent US20250041429A1
